Some compounds, each annotated with its measured IC50.
Tested on: JeKo-1
Assay procedure: Antiproliferative activity against human JeKo1 cells measured after 72 hrs by CellTiter96 Aqueous non-radioactive cell proliferation assay
Format: functional, cell-based
Setup conditions: JeKo-1, 72 h

Compound: Nc1cccc2c1CN(C1CCC(=O)NC1=O)C2=O (stereo unspecified) [LENALIDOMIDE]
IC50: > 20 µM

Compound: O=C1CCC(N2Cc3c(SCc4ccc(Cl)cc4)cccc3C2=O)C(=O)N1 (stereo unspecified)
IC50: > 20 µM

Compound: N#Cc1ccc(CSc2cccc3c2CN(C2CCC(=O)NC2=O)C3=O)cc1 (stereo unspecified)
IC50: > 20 µM

Compound: Cc1ccc(CSc2cccc3c2CN(C2CCC(=O)NC2=O)C3=O)cc1 (stereo unspecified)
IC50: > 20 µM

Compound: Cc1ccc(NC(=O)NCc2ccc3c(c2)CN(C2CCC(=O)NC2=O)C3=O)cc1Cl (stereo unspecified)
IC50: 0.0012 µM

Compound: O=C1CCC(N2Cc3c(SCc4ccc(F)cc4)cccc3C2=O)C(=O)N1 (stereo unspecified)
IC50: > 20 µM
